Values from patent US20240317847A1

Target: T1, murine IL-11 (Invigate, e.g., lot #C210819-09) (mouse, UniProt P47873 22-199)
T1 construct: Bought protein; biotinylated where captured on streptavidin plates; also called mIL-11; mIL11
T1 sequence: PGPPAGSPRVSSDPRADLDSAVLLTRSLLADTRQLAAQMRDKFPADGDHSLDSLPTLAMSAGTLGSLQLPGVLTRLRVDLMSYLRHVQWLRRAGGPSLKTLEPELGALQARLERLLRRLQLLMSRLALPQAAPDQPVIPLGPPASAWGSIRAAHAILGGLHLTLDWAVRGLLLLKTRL
Assay: SPR, Biacore 8K; antibody captured on anti-human IgG Fc chip, IL-11 analyte 0-50 nM, 1:1 fit
Listed here: items and their measured Kd.
Express your answer in nM, writing the number without its unit.

Examples with answers:
TPP-31307 (antibody, human IgG4, V domains shown, consecutive numbering; also called VH-G55A / VL-G98A) VH: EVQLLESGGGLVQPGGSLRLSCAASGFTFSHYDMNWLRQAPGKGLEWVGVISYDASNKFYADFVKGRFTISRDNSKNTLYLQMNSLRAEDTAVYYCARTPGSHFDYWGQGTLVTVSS VL: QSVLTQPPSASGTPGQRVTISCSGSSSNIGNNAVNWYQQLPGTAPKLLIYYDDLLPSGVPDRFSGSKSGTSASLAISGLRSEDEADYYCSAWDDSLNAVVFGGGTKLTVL	28
TPP-31289 (antibody, human IgG4, V domains shown, consecutive numbering; also called VH-G16R) VH: EVQLLESGGGLVQPGRSLRLSCAASGFTFSHYDMNWLRQAPGKGLEWVGVISYDGSNKFYADFVKGRFTISRDNSKNTLYLQMNSLRAEDTAVYYCARTPGSHFDYWGQGTLVTVSS VL: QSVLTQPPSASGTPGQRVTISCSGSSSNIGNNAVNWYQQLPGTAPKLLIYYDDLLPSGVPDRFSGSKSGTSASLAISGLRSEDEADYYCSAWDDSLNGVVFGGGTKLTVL	14
TPP-31281 (antibody, human IgG4, V domains shown, consecutive numbering; also called VL-D52N) VH: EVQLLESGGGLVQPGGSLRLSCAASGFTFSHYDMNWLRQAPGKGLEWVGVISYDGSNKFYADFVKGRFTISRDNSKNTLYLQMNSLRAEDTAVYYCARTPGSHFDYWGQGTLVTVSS VL: QSVLTQPPSASGTPGQRVTISCSGSSSNIGNNAVNWYQQLPGTAPKLLIYYNDLLPSGVPDRFSGSKSGTSASLAISGLRSEDEADYYCSAWDDSLNGVVFGGGTKLTVL	130

--- query ---
Enquiry: Report Kd for TPP-31288 (antibody, human IgG4, V domains shown, consecutive numbering; also called VH-L11V) VH: EVQLLESGGGVVQPGGSLRLSCAASGFTFSHYDMNWLRQAPGKGLEWVGVISYDGSNKFYADFVKGRFTISRDNSKNTLYLQMNSLRAEDTAVYYCARTPGSHFDYWGQGTLVTVSS VL: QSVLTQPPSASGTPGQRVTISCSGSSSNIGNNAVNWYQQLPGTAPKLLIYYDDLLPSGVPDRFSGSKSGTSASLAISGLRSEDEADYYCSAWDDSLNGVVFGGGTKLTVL
Return: 15
